system: HCT116; test: efficacy (fitted maximal change in viability relative to DMSO control); higher = less cytotoxic (negative = loss of viability); details: 48 h;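 further: Luminescence-based viability readout, five doses per compound, normalized against on-plate DMSO and empty-well controls, followed by dose-response curve fitting for every drug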
Where a name gives a salt, the structure may show the parent alone.
QUANTITY NAME: efficacy (%)
Provide only the numeric value, understood in %.

Use these answered entries as a reference point.
COMPOUND	efficacy [%]
Cc1c(N)nc([C@H](CC(N)=O)NC[C@@H](N)C(N)=O)nc1C(=O)N[C@H](C(=O)N[C@@H](C)[C@H](O)[C@@H](C)C(=O)N[C@@H](C(=O)NCCc1nc(-c2nc(C(=O)NCCC[S+](C)C)cs2)cs1)[C@@H](C)O)C(O[C@H]1O[C@H](CO)[C@H](O)[C@@H](O)[C@H]1O[C@H]1O[C@H](CO)[C@@H](O)[C@H](OC(N)=O)[C@@H]1O)c1c[nH]cn1 (stereo not given in full) [Bleomycin sulfate]	-34.2
CC(C)(C)C1=NC2=C([NH]1)C3=CC=C(F)C=C3C4=C2\C=C/NC4=O [Pyridone 6]	-28.4
CCOC(=O)N[C@@H]1CC[C@@H]2[C@@H](C1)C[C@H]1C(=O)O[C@H](C)[C@H]1[C@H]2/C=C/c1ccc(-c2cccc(F)c2)cn1 [Vorapaxar]	-40.6
C=C(c1ccc(C(=O)O)cc1)c1cc2c(cc1C)C(C)(C)CCC2(C)C [Bexarotene]	-19.6

Here is the next item to consider.
What value of measured efficacy is listed for C/C1=C/C(=C(/CNC(=O)C2=CC(=CC3=C2C=N[N]3C4CCCC4)C5=CC=C(CN6CCOCC6)C=C5)C(=O)N1)C ?
-108

// data source = the supplement of paper PMC10290057
